System: ECHCG
run_description: Post-emergence herbicidal action against ECHCG
Type: in vivo, Echinochloa crus-galli
condition_description: Echinochloa crus-galli, 504 h, dosage 20 g/ha
I'd appreciate it if you could supply pest or weed control at 20 g/ha values for the items below.
Give bare numbers, in %.

>  <smiles_record>
CCNC(=O)c1c(I)ccc(C(=O)Nc2nnnn2CC)c1Cl

>  <measured_metric>
pest or weed control at 20 g/ha

>  <unit>
%

>  <assay_result>
80

$$$$

Fill in pest or weed control at 20 g/ha for each of the 2 molecules listed.
1. CCc1c(C(=O)Nc2nnnn2CC)ccc(C(F)F)c1C(=O)NC1CC1
2. COc1c(C(=O)Nc2nnnn2C)ccc(C(F)F)c1C(=O)NC1CC1

Result ::
1: 90; 2: 80

List reported pest or weed control at 20 g/ha for each of these molecules:
1. CCCNC(=O)c1c(C(F)(F)F)ccc(C(=O)Nc2nnnn2C)c1Cl
2. CC(C)NC(=O)c1c(C(F)F)ccc(C(=O)Nc2nnnn2C)c1Cl

Result ::
[90, 90]

====

Record form. Attribute: pest or weed control at 80 g/ha. Fill in for each entry.
System: AVEFA
run_description: Pre-emergence herbicidal action against AVEFA
Type: in vivo, Avena fatua
condition_description: Avena fatua, 504 h; 80 g/ha, pre-emergence
Write your answer as a measured quantity: the number, then the unit.

>  <smiles_record>
CCNC(=O)c1c(Br)ccc(C(=O)Nc2nnnn2CC)c1Cl

>  <measured_metric>
pest or weed control at 80 g/ha

>  <assay_result>
100%

$$$$
>  <smiles_record>
CCCn1nnnc1NC(=O)c1ccc(C(F)(F)F)c(C(=O)NCC)c1C

>  <measured_metric>
pest or weed control at 80 g/ha

>  <assay_result>
100%

$$$$
>  <smiles_record>
Cn1nnnc1NC(=O)c1ccc(C(F)F)c(C(=O)NCC(F)(F)F)c1Br

>  <measured_metric>
pest or weed control at 80 g/ha

>  <assay_result>
80%

$$$$
>  <smiles_record>
CNC(=O)c1c(I)ccc(C(=O)Nc2nnnn2C)c1Cl

>  <measured_metric>
pest or weed control at 80 g/ha

>  <assay_result>
90%

$$$$
>  <smiles_record>
CCNC(=O)c1c(C(F)F)ccc(C(=O)Nc2nnnn2C)c1SC

>  <measured_metric>
pest or weed control at 80 g/ha

>  <assay_result>
90%

$$$$
>  <smiles_record>
CCNC(=O)c1c(C(F)(F)F)ccc(C(=O)Nc2nnnn2CC)c1Br

>  <measured_metric>
pest or weed control at 80 g/ha

>  <assay_result>
100%

$$$$
>  <smiles_record>
CCNC(=O)c1c(C(F)(F)F)ccc(C(=O)Nc2nnnn2C)c1Br

>  <measured_metric>
pest or weed control at 80 g/ha

>  <assay_result>
100%

$$$$
>  <smiles_record>
CCCNC(=O)c1c(C(F)(F)F)ccc(C(=O)Nc2nnnn2C)c1Cl

>  <measured_metric>
pest or weed control at 80 g/ha

>  <assay_result>
80%

$$$$

Here is another compound to look at.
// recorded pest or weed control at 80 g/ha for CCNC(=O)c1c(Br)ccc(C(=O)Nc2nnnn2CC)c1Br : 90%

====

I'd be grateful if you could share measured Post-emergence action against MATIN in % for these entries.
System: MATIN
run_description: Post-emergence herbicidal action against MATIN
Type: in vivo, Matricaria inodora
condition_description: dosage 20 g/ha
One number for each entry, in %.

Observe how each entry below is paired with its result.
>  <smiles_record>
CCn1nnnc1NC(=O)c1ccc(C(F)(F)F)c(C(=O)NC)c1C

>  <unit>
%

>  <Post-emergence action against MATIN in %>
100

$$$$
>  <smiles_record>
CCn1nnnc1NC(=O)c1ccc(C(F)(F)F)c(C(=O)NCC(F)F)c1SC

>  <unit>
%

>  <Post-emergence action against MATIN in %>
90

$$$$
>  <smiles_record>
CCn1nnnc1NC(=O)c1ccc(Br)c(C(=O)NCC(F)F)c1Cl

>  <unit>
%

>  <Post-emergence action against MATIN in %>
90

$$$$
>  <smiles_record>
CCn1nnnc1NC(=O)c1ccc(C(F)F)c(C(=O)NCC2CC2)c1C

>  <unit>
%

>  <Post-emergence action against MATIN in %>
80

$$$$

// for each molecule below, give its Post-emergence action against MATIN in %
1. CCCn1nnnc1NC(=O)c1ccc(C(F)(F)F)c(C(=O)NC(C)=O)c1Cl
2. CCn1nnnc1NC(=O)c1ccc(C(F)F)c(C(=O)NC2CC2)c1C
3. CCn1nnnc1NC(=O)c1ccc(C(F)(F)F)c(C(=O)NCC2CC2)c1Br
4. CCn1nnnc1NC(=O)c1ccc(C(F)(F)F)c(C(=O)NC)c1C1CC1

Result ::
1: 80; 2: 80; 3: 90; 4: 90

Record CCn1nnnc1NC(=O)c1ccc(C(F)F)c(C(=O)NCC(F)(F)F)c1Br ; system MATIN; Post-emergence action against MATIN in % = 80
